FYI, the data here is from patent US12552799B2.

Reported log10 of Ki values follow for various compounds
# TGT: human CB-1 cannabinoid receptor (Homo sapiens (Human))
# Sequence (P21554 whole entry): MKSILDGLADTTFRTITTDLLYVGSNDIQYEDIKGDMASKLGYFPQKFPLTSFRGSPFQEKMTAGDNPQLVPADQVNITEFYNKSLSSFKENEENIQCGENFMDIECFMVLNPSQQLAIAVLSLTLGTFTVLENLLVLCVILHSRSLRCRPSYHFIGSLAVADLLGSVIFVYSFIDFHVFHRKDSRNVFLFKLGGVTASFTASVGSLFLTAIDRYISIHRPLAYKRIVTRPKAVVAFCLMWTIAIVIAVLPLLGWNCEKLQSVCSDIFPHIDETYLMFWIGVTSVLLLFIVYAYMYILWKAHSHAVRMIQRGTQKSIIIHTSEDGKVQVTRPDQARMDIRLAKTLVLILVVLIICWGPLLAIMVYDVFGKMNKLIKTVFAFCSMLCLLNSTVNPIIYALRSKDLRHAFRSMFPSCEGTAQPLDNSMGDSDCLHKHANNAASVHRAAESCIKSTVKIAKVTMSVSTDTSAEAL
# PROTOCOL: CB-1 receptor radioligand binding assay ([3H]CP 55940, transfected CHO cell membranes)
# EXPERIMENTAL_CONTEXT: 0.5 nM [3H]CP 55940, 120 min at 37° C., agonist site
RECORDED_ENDPOINT: log10 of Ki (log10 of the value in µM)

- COMPOUND: "Cc1ocnc1Cn1nc2c(-c3cc(C)c4[nH]ncc4c3)c(-c3ccccc3)nc(N)n2c1=O"
  log10 of Ki: 1.59
- COMPOUND: "Cc1cc(-c2c(-c3ccccc3)nc(N)n3c(=O)n(Cc4ccc(F)cn4)nc23)cc2nc[nH]c12"
  log10 of Ki: 1.39
- COMPOUND: "C[C@@H]1CN(c2c(-c3ccccc3)nc(N)n3c(=O)n(CCC(F)(F)F)nc23)C[C@H](C)O1"
  log10 of Ki: 1.53
- COMPOUND: "C[C@@H]1CC(c2c(-c3ccccc3)nc(N)n3c(=O)n(CCC(F)(F)F)nc23)=C[C@H](C)O1 (relative stereo)"
  log10 of Ki: 1.50
- COMPOUND: "Cc1ocnc1Cn1nc2c(-c3cc(Cl)c4[nH]ncc4c3)c(-c3ccccc3)nc(N)n2c1=O"
  log10 of Ki: 0.40
- COMPOUND: "C[C@@H]1CN(c2c(-c3ccccc3)nc(N)n3c(=O)n(Cc4ccc(F)cn4)nc23)C[C@H](C)O1"
  log10 of Ki: 0.98
- COMPOUND: "Cc1cc(-c2c(-c3ccccc3)nc(N)n3c(=O)n(Cc4ccc(F)cn4)nc23)cc2cn[nH]c12"
  log10 of Ki: 0.74
- COMPOUND: "Cc1cc(-c2c(-c3ccc(F)cc3)nc(N)n3c(=O)n(CCC(F)(F)F)nc23)cc2ocnc12"
  log10 of Ki: 0.57
- COMPOUND: "Cc1ocnc1Cn1nc2c(-c3cc(C)c4[nH]ccc4c3)c(-c3ccccc3)nc(N)n2c1=O"
  log10 of Ki: 1.60

====

Reported A1 pKi values follow for various molecules
# TGT: human adenosine A1 receptor (Homo sapiens (Human), UniProt P30542)
# Sequence (P30542 whole entry): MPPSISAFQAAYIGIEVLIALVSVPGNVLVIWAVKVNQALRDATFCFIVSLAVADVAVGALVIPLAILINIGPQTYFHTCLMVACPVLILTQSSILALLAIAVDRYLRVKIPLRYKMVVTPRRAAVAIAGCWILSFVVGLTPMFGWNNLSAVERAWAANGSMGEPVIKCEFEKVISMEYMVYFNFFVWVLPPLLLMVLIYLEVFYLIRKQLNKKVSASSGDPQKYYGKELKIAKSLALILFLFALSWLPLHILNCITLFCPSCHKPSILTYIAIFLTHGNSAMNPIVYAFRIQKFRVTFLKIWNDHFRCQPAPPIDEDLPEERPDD
# PROTOCOL: Adenosine receptor binding assay, A1 ([3H]DPCPX inhibition binding on membranes)
# EXPERIMENTAL_CONTEXT: 1 nM [3H]DPCPX, 25° C., 1 h; Ki from IC50 by Cheng-Prusoff

- MOLECULE: "C[C@@H]1CN(c2c(-c3ccc(F)cc3)nc(N)n3c(=O)n(CCC(F)(F)F)nc23)C[C@H](C)O1"
  A1 pKi: "<5.5"
- MOLECULE: "C[C@@H]1CN(c2c(-c3ccccc3)nc(N)n3c(=O)n(CCC(F)F)nc23)C[C@H](C)O1"
  A1 pKi: "<5.4"
- MOLECULE: "C[C@@H]1CN(c2c(-c3ccccc3)nc(N)n3c(=O)n(C[C@@H]4COCCN4)nc23)C[C@H](C)O1"
  A1 pKi: "<5.6"
- MOLECULE: "C[C@@H]1CC(c2c(-c3ccccc3)nc(N)n3c(=O)n(CCC(F)(F)F)nc23)C[C@H](C)O1 (some centres unmarked)"
  A1 pKi: "<5.5"
- MOLECULE: "C[C@@H]1CN(c2c(-c3ccccc3)nc(N)n3c(=O)n(CCC(F)(F)F)nc23)C[C@H](C)O1"
  A1 pKi: "<5.4"
- MOLECULE: "C[C@@H]1CN(c2c(-c3ccccc3)nc(N)n3c(=O)n(C[C@@H]4COCCN4C)nc23)C[C@H](C)O1"
  A1 pKi: "<5.4"
- MOLECULE: "C[C@@H]1CN(c2c(-c3ccccc3)nc(N)n3c(=O)n(C[C@H]4COCCN4)nc23)C[C@H](C)O1"
  A1 pKi: "<5.4"
- MOLECULE: "C[C@@H]1CN(c2c(-c3ccccc3)nc(N)n3c(=O)n(CCc4ccccc4)nc23)C[C@H](C)O1"
  A1 pKi: "<5.8"
